molecular target: T1, human MSLN-FL-his protein (human, UniProt Q13421 296-580); assay: ELISA on coated antigen, antibody 100 nM
T1 construct: Made in HEK293E cells, purified on nickel column; it is put last here; also called human MSLN full-length protein; hMSLN-FL-his; not shown: His tag
T1 sequence (Q13421 other isoform, or with tags, fused parts or gaps): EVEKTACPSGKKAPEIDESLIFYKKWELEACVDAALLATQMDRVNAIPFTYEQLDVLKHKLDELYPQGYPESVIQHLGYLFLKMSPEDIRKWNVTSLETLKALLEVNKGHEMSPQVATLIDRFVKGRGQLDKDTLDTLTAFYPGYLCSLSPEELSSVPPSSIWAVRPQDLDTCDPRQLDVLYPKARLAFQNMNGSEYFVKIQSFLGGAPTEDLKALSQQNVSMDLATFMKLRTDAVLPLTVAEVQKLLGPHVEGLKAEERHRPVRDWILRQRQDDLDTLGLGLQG
Measured Property: OD450 (OD)

Binder: S009-F8-29.1 (antibody, human IgG1, kappa, V domains shown, Human-murine chimeric antibody, human IgG1 heavy and kappa light constant regions) VH: QVQLQQSGAELARPGASVKMSCKASGYTFISYTMHWVKQRPGQGLEWIGYINPSSGYTKYNQKFKDKATLTADKSSSTAYMQLNSLTSEDSAVYYCARYYSNPDYYAMDYWGQGTSVTVSS VL: QIVLTQSPAIMSASPGEKVTITCSASSSVSYMHWFQQKPGTSPKLWIYSTSNLASGVPARFSGSGSGTSYSLTISRMEAEDAATYYCQQRSSYPLTFGGGTKLELKR
Unit Info: OD
Recorded Measurement: 3.07

Binder: S009-F8-28.23 (antibody, human IgG1, kappa, V domains shown, Human-murine chimeric antibody, human IgG1 heavy and kappa light constant regions) VH: EVQLVESGGDLVKPGGSLKLSCAASGFTFSSYAMSWVRQTPEKRLEWVATISDGGSYTYYPDNVEGRFTISRDNAKNNLYLQMSHLKSEDTAMYYCAGDRGYSYALDYWGQGTSVTVSS VL: NIMMTQSPSSLAVSAGEKVTMSCKSSQSVLYSSNQKNYLAWYQQKPGQSPKLLIYWASTRESGVPDRFTGSGSGTDFTLTISSVQAEDLAVYYCHQYLSSLTFGAGTKLELKR
Unit Info: OD
Recorded Measurement: 3

Binder: S009-F8-32.3 (antibody, human IgG1, kappa, V domains shown, Human-murine chimeric antibody, human IgG1 heavy and kappa light constant regions) VH: QVQLKESGPGLVAPSQSLSITCTVSGFSLSSYAISWVRQPPGKGLEWLGVIWTGGGTNYNSALKSRLSISKDNSKSQVFLKMNSLQTDDTARFYCARNNYGRLDYAMDYWGQGTSVTVSS VL: DVVMTQTPLSLPVSLGDQASISCRSSQSLVHGNGNTYLHWYLQKPGQSPKLLIYKVSNRFSGVPDRFSGSGSGTDFTLKISRVETEDLGVYFCSQSTHVPFTFGSGTKLEIKR
Unit Info: OD
Recorded Measurement: 3.03
